Target protein (sequence): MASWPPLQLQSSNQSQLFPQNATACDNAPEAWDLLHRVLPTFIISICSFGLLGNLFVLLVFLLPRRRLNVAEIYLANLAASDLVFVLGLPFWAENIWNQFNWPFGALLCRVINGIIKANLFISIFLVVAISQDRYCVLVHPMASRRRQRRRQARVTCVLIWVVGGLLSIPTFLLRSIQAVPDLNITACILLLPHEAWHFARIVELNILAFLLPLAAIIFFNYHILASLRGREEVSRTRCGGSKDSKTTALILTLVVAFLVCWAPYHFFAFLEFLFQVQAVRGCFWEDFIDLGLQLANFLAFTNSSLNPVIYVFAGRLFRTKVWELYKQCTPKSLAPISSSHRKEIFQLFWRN
pKi: −log10 of the molar value.
reported.metric: pKi

Worked cases, answers included:
>>> quantitative_readout("Nc1cncc(C(=O)N[C@@]2(C(=O)NCc3ccc(Nc4ccc(F)cc4C(F)(F)F)cc3F)CCOC2)c1")
8.38
>>> quantitative_readout("CNc1ncc(C(=O)NC2(C(=O)NCc3ccc(Nc4ccc(Cl)cc4C(F)(F)F)cn3)CC2)cn1")
8.55
>>> quantitative_readout("O=C(NC1(C(=O)NCc2ccc(Nc3ccc(Cl)cc3Cl)cn2)CC1)c1cncnc1")
7.35

a = Nc1cc(C(=O)NC2(C(=O)NCc3ccc(Nc4ccc(F)cc4C(F)(F)F)cn3)CC2)on1
b = Cc1ncc(C(=O)NC2(C(=O)NCc3ncc(Nc4ccc(F)cc4C(F)(F)F)cc3C)CC2)cn1
c = O=C(N[C@@]1(C(=O)NCc2ccc(Nc3ccc(F)cc3C(F)(F)F)cc2)CCOC1)c1cnc2[nH]ccc2c1
d = Cc1ncc(C(=O)N[C@@]2(C(=O)NCc3ccc(Nc4ccccc4C(F)(F)F)cc3F)CCOC2)cn1
Sequence the entries by pKi, beginning with the highest number. Put the labels in the requested order and write them down.
b, d, a, c
(b: 8.72, d: 8.26, a: 7.43, c: 6.65)

====

Observed Ki for cynomolgus BK1-receptor (Macaca fascicularis, UniProt Q3BCU0), reported per entry below.
reported.metric: Ki (nM)

>>> quantitative_readout("CN(C)c1ncc(C(=O)NC2(C(=O)NCc3ccc(Nc4ccc(Br)cc4C(F)(F)F)cn3)CC2)cn1")
63
>>> quantitative_readout("CCNc1ncc(C(=O)NC2(C(=O)NCc3ccc(Nc4ccc(F)cc4C(F)(F)F)cn3)CC2)cn1")
3.9

1 = CNc1cncc(C(=O)N[C@@]2(C(=O)NCc3ncc(Nc4ccc(F)cc4C(F)(F)F)cc3Cl)CCOC2)c1
2 = COc1ccc(C(=O)NC2(C(=O)NCc3ccc(Nc4ccc(Br)cc4C(F)(F)F)cn3)CC2)cn1
Please indicate which entry, 1 or 2 , has the lower recorded Ki value. // output: label of the selected item
1

====

# tested.system: cynomolgus BK1-receptor (Macaca fascicularis, UniProt Q3BCU0)
# Construct: expressed in transfected cells; host or cells: CHO cells (homogenate)
# measurement.description: cynoBK1-receptor binding assay
# assay.setup: at 10 μgmol/L; CHO cells expressing cynomolgus BK1-receptor, radioligand kallidine (DesArg10,Leu9)
reported.metric: inhibition at 10 µM (%)

>>> quantitative_readout("CN(C)c1ncc(C(=O)NC2(C(=O)NCc3ccc(Nc4ccc(Br)cc4C(F)(F)F)cn3)CC2)cn1 [(175)]")
96
>>> quantitative_readout("O=C(N[C@@]1(C(=O)NCc2ccc(Nc3ccccc3C(F)(F)F)cc2)CCOC1)c1ccc(F)nc1 [(107)]")
95
>>> quantitative_readout("Cn1ccc(C(=O)NC2(C(=O)NCc3ccc(Nc4ccc(Br)cc4C(F)(F)F)cn3)CC2)cc1=O [(177)]")
99
>>> quantitative_readout("O=C(NC1(C(=O)NCc2ccc(Nc3ccc(Br)cc3C(F)(F)F)cn2)CC1)c1cncnc1 [(54)]")
112
>>> quantitative_readout("O=C(NC1(C(=O)NCc2ccc(Nc3ccccc3C(F)(F)F)cn2)CC1)c1cncnc1 [(39)]")
110
>>> quantitative_readout("O=C(NC1(C(=O)NCc2ccc(Nc3ccccc3C(F)(F)F)cc2)CC1)c1cnc(O)nc1O [(9)]")
78
>>> quantitative_readout("CCCCC(=O)NC1(C(=O)NCc2ccc(Nc3ccccc3C(F)(F)F)cc2)CC1 [(16)]")
91
>>> quantitative_readout("O=C1CCC(C(=O)N[C@@]2(C(=O)NCc3ccc(Nc4ccccc4C(F)(F)F)cc3)CCOC2)CN1 (some centres unmarked) [(76)]")
80
>>> quantitative_readout("O=C(NC1(C(=O)NCc2ncc(Nc3ccc(Br)cc3C(F)(F)F)cc2F)CC1)c1cncnc1 [(179)]")
101
>>> quantitative_readout("CN1CC(C(=O)N[C@@]2(C(=O)NCc3ccc(Nc4ccccc4C(F)(F)F)cc3)CCOC2)CC1=O (some centres unmarked) [(71)]")
80
>>> quantitative_readout("CC(C(=O)N[C@@]1(C(=O)NCc2ccc(Nc3ccccc3C(F)(F)F)cc2)CCOC1)C(F)(F)F (some centres unmarked) [(91)]")
100
>>> quantitative_readout("CNc1ncc(C(=O)NC2(C(=O)NCc3ncc(Nc4c(F)cccc4C(F)(F)F)cc3F)CC2)cn1 [(133)]")
101
>>> quantitative_readout("CC(NC(=O)C1(NC(=O)c2cncnc2)CC1)c1ccc(Nc2ccccc2C(F)(F)F)cn1 (centres unmarked) [(40)]")
110
>>> quantitative_readout("COc1ncc(C(=O)N[C@@]2(C(=O)NCc3ccc(Nc4ccccc4C(F)(F)F)cc3)CCOC2)cn1 [(81)]")
113
>>> quantitative_readout("O=C(NC1(C(=O)NCc2ccc(Nc3ccc(F)cc3C(F)(F)F)cc2)CC1)c1cncnc1 [(33)]")
110
>>> quantitative_readout("Nc1ncc(C(=O)NC2(C(=O)NCc3ccc(Nc4ccc(F)cc4C(F)(F)F)cn3)CC2)o1 [(169)]")
90
>>> quantitative_readout("Nc1cncc(C(=O)N[C@@]2(C(=O)NCc3ncc(Nc4ccc(F)cc4C(F)(F)F)cc3F)CCOC2)c1 [(156)]")
107
